The measurements presented in this section are drawn from patent US20130150350A1.

Biological target: HIV-1NL4-3 CA-NC protein (SEQ ID NO: 2) (Human immunodeficiency virus type 1 group M subtype B, UniProt P12493, G226D)
Construct: HIV-1NL4-3 CA-NC, Gag residues 133-432; initiator Met (start codon introduced by PCR primer) (N); made in house; host or cells: E. coli BL21(DE3), pET-11a
Assay: Immobilized capsid assembly assay (CAA)
Format: biochemical
Conditions: concentration for 50% inhibition of capsid assembly; 2 μM CA-NC, 2 hours at room temperature; read-out: IC50 (μM) CAA
Could you please mark t for values of IC50 below 0.3 µM and f for values at or above it?

[[record]]
compound = "CN1c2ccc(Cl)cc2N(c2ccccc2)C(=O)c2cn(Cc3ccncc3)nc21 [Compound 4032]"
class_name = "f"


A record lists CCN1c2ccc(Cl)cc2N(c2ccccc2)C(=O)c2c1ncn2C [Compound 5001] . Is its IC50 below 0.3 µM?
f

A record lists CCN1C(=O)N(c2ccc(O)c(-c3cccnc3)c2)C(=O)N(c2ccccc2)c2cc(C(F)(F)F)ccc21 [Compound 3014] . Is its IC50 below 0.3 µM?
f

A record lists CCN1C(=O)/C(=C/NCCOC)C(=O)N(c2ccccc2)c2cc(Cl)ccc21 [Compound 1004] . Is its IC50 below 0.3 µM?
f

A record lists COCCNCc1ccc(Cn2cnc3c2C(=O)N(c2ccccc2)c2cc(Cl)ccc2N3C)cc1 [Compound 5026] . Is its IC50 below 0.3 µM?
t

A record lists CN1c2ccc(Cl)cc2N(c2ccccc2)C(=O)c2c[nH]nc21 [Compound 4007] . Is its IC50 below 0.3 µM?
f

A record lists CN1c2ccc(C(F)(F)F)cc2N(c2ccccc2)C(=O)c2c1ncn2C [Compound 5003] . Is its IC50 below 0.3 µM?
t

A record lists CCN1C(=O)N(c2ccccc2)C(=O)N(c2ccccc2)c2cc(C(F)(F)F)ccc21 [Compound 3011] . Is its IC50 below 0.3 µM?
f
